# assay.text: Apparent permeability across apical to basal side in human Caco-2 cells at 1 uM incubated for 1 hr
# Format: ADME, cell-based
readout.type: Papp A→B at 1 h, 1 µM (×10⁻⁶ cm/s)
Give just the numeric value; ×10⁻⁶ cm/s need not be written.

Incoming: Identify measured Papp A→B at 1 h, 1 µM associated with C#CC1(NC(=O)C(=O)c2c(C)c(C(=O)Nc3ccc(F)c(C#N)c3)n(C)c2C)COC1
Outgoing: 1.8

---

# assay.text: Clearance in Sprague-Dawley rat at 1 mg/kg, iv by LC-MS/MS analysis
# Assay type: ADME, organism-based
# measurement.conditions: in vivo
readout.type: clearance (mL/min/kg)
Provide only the numeric value, understood in mL/min/kg.

Incoming: Supply reported clearance belonging to this compound: C#CC1(NC(=O)C(=O)c2c(C)c(C(=O)Nc3ccc(F)c(C#N)c3)n(C)c2C)COC1
Outgoing: 6.09

---

# assay.text: Metabolic stability in mouse liver microsomes assessed as half life at 1 uM incubated upto 60 mins in presence of NADPH
# Format: ADME, Microsome
Recorded measurements of half-life at 1 µM, one per entry

Incoming: Give me measured half-life at 1 µM, please, for this molecule: C#CCNC(=O)C(=O)c1c(C)c(C(=O)Nc2ccc(F)c(F)c2)n(C)c1C
Outgoing: 40.4 min

Incoming: Using known records, supply half-life at 1 µM for C#CC1(N(COP(=O)([O-])[O-])C(=O)C(=O)c2c(C)c(C(=O)Nc3ccc(F)c(C#N)c3)n(C)c2C)COC1.[Na+].[Na+]
Outgoing: > 60 min

Now consider a different molecule.
Incoming: Return reported half-life at 1 µM. Input molecule: C#CC1(NC(=O)C(=O)c2c(C)c(C(=O)Nc3ccc(F)c(C#N)c3)n(C)c2C)COC1
Outgoing: > 60 min

---

# assay.text: Half life in Beagle dog at 5 mg/kg, po by LC-MS/MS analysis
# Assay type: ADME, organism-based, Canis lupus familiaris
# measurement.conditions: in vivo
readout.type: half-life (h)
The answer is to be given in h; state only the numeric part.

Incoming: For the compound C#CC1(NC(=O)C(=O)c2c(C)c(C(=O)Nc3ccc(F)c(C#N)c3)n(C)c2C)COC1 , report half-life.
Outgoing: 7.83

---

# assay.text: Metabolic stability in Cynomolgous monkey hepatocytes assessed as half life at 1 uM incubated upto 180 mins
# measurement.conditions: cynomolgus monkey
readout.type: half-life at 1 µM

Incoming: Return value of half-life at 1 µM for input C#CC1(NC(=O)C(=O)c2c(C)c(C(=O)Nc3ccc(F)c(C#N)c3)n(C)c2C)COC1 , no commentary.
Outgoing: > 6 h

---

# assay.text: Half life in Sprague-Dawley rat at 5 mg/kg, po by LC-MS/MS analysis
# Assay type: ADME, organism-based
# measurement.conditions: in vivo
readout.type: half-life (h)
Field format: number, assumed h, no unit text.

Incoming: Give me measured half-life, please, for this compound: C#CC1(NC(=O)C(=O)c2c(C)c(C(=O)Nc3ccc(F)c(C#N)c3)n(C)c2C)COC1
Outgoing: 2.17

---

# study.system: Bile salt export pump (Homo sapiens, UniProt O95342)
# Sequence (O95342 whole entry): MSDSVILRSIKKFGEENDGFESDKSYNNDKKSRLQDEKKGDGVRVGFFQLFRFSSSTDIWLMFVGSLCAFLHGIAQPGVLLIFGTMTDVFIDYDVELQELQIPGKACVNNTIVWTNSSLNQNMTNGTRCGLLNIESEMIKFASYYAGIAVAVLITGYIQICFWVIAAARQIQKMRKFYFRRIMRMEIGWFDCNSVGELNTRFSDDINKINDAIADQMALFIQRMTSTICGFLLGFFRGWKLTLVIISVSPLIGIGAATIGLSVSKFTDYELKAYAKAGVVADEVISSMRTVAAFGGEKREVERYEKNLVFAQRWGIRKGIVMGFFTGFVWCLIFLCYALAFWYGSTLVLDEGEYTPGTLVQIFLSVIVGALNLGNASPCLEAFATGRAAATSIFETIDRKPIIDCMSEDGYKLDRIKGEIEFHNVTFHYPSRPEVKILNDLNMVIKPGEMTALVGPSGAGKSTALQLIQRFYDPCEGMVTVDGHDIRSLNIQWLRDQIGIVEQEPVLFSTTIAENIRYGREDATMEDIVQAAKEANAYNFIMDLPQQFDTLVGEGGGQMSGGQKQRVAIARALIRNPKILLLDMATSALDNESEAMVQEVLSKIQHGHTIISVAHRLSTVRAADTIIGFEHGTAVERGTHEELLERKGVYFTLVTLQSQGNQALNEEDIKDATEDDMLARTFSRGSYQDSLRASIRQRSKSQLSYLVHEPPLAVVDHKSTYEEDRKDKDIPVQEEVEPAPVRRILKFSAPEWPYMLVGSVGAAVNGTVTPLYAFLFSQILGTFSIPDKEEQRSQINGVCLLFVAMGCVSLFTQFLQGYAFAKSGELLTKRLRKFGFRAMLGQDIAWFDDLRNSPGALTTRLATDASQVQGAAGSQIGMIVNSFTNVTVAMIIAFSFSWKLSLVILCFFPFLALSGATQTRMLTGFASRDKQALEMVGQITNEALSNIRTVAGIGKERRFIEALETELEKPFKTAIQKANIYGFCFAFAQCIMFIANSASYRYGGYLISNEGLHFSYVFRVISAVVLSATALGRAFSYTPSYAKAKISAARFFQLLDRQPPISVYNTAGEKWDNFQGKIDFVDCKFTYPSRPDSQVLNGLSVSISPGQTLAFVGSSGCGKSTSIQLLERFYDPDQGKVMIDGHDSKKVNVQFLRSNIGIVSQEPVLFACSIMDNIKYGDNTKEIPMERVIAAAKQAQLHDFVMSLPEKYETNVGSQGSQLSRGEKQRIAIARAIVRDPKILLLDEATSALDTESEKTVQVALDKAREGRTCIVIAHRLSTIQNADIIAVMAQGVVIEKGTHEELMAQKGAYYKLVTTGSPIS
# assay.text: Inhibition of BSEP (unknown origin) transfected in HEK293 cells
readout.type: IC50

Incoming: Consider the compound C#CC1(NC(=O)C(=O)c2c(C)c(C(=O)Nc3ccc(F)c(C#N)c3)n(C)c2C)COC1 . State its measured IC50.
Outgoing: > 11.8 µM

---

# assay.text: AUC (infinity) in Beagle dog at 5 mg/kg, po by LC-MS/MS analysis
# Assay type: ADME, organism-based, Canis lupus familiaris
# measurement.conditions: in vivo
readout.type: AUC(0-inf) (ng·h/mL)
Give just the number in ng·h/mL; leave the unit off.

Incoming: Output measured AUC(0-inf) for this item: C#CC1(NC(=O)C(=O)c2c(C)c(C(=O)Nc3ccc(F)c(C#N)c3)n(C)c2C)COC1
Outgoing: 24500

---

# assay.text: AUC (infinity) in Sprague-Dawley rat at 1 mg/kg, iv by LC-MS/MS analysis
# Assay type: ADME, organism-based
# measurement.conditions: in vivo
readout.type: AUC(0-inf) (ng·h/mL)
Numeric answer only, unit ng·h/mL assumed.

Incoming: Name the recorded AUC(0-inf) of the item C#CC1(NC(=O)C(=O)c2c(C)c(C(=O)Nc3ccc(F)c(C#N)c3)n(C)c2C)COC1 in your answer.
Outgoing: 2780

---

Readings of half-life for the listed compounds
# assay.text: Metabolic stability in mouse plasma assessed as half life
# Type: ADME, cell-free

Incoming: Provide measured half-life value, entry: C#CC1(N(COP(=O)([O-])[O-])C(=O)C(=O)c2c(C)c(C(=O)Nc3ccc(F)c(C#N)c3)n(C)c2C)COC1.[Na+].[Na+]
Outgoing: > 4 h

Now take the following compound into account.
Incoming: For C#CC1(NC(=O)C(=O)c2c(C)c(C(=O)Nc3ccc(F)c(C#N)c3)n(C)c2C)COC1 , write its half-life.
Outgoing: > 4 h

---

# assay.text: Clearance in C57BL/6J mouse at 1 mg/kg, iv by LC-MS/MS analysis
# Assay type: ADME, organism-based
# measurement.conditions: in vivo
readout.type: clearance (mL/min/kg)
# unit: mL/min/kg | format: bare number

Incoming: Tell me its clearance given C#CC1(NC(=O)C(=O)c2c(C)c(C(=O)Nc3ccc(F)c(C#N)c3)n(C)c2C)COC1 as the entry.
Outgoing: 12

---

# assay.text: Ratio of drug concentration in blood to plasma in rat at 5 uM incubated for 60 mins
# Type: ADME, cell-free
readout.type: blood plasma ratio at 1 h, 5 µM
// keep it numeric: no unit symbol after the value

Incoming: Report blood plasma ratio at 1 h, 5 µM for C#CC1(NC(=O)C(=O)c2c(C)c(C(=O)Nc3ccc(F)c(C#N)c3)n(C)c2C)COC1
Outgoing: 0.72

---

# assay.text: Plasma protein binding in human at 1 uM incubated for 4 to 24 hrs by equilibrium dialysis method
# Type: ADME, cell-free
# measurement.conditions: time 4-24 hrs, read-out: PPB (converted)
readout.type: fraction unbound at 1 µM

Incoming: Assign fraction unbound at 1 µM to the following record: C#CC1(NC(=O)C(=O)c2c(C)c(C(=O)Nc3ccc(F)c(C#N)c3)n(C)c2C)COC1
Outgoing: 0.191

---

# assay.text: Volume of distribution at steady state in Cynomolgous monkey at 1 mg/kg, iv by LC-MS/MS analysis
# Type: ADME, organism-based, Macaca fascicularis
# measurement.conditions: cynomolgus monkey, in vivo, read-out: Vdss
readout.type: Vd

Incoming: Give the reported value of Vd for this record: C#CC1(NC(=O)C(=O)c2c(C)c(C(=O)Nc3ccc(F)c(C#N)c3)n(C)c2C)COC1
Outgoing: 0.89 L/kg

---

# assay.text: Plasma protein binding in Cynomolgous monkey at 1 uM incubated for 4 to 24 hrs by equilibrium dialysis method
# Assay type: ADME, cell-free, Macaca fascicularis
# measurement.conditions: cynomolgus monkey, time 4-24 hrs, read-out: PPB (converted)
readout.type: fraction unbound at 1 µM
// return a plain number; no unit text

Incoming: Provide measured fraction unbound at 1 µM value, entry: C#CC1(NC(=O)C(=O)c2c(C)c(C(=O)Nc3ccc(F)c(C#N)c3)n(C)c2C)COC1
Outgoing: 0.284

---

# assay.text: Cmax in Beagle dog at 5 mg/kg, po by LC-MS/MS analysis
# Format: ADME, organism-based, Canis lupus familiaris
# measurement.conditions: in vivo
readout.type: Cmax (ng/mL)
Give the value, in units of ng/mL, as a plain number.

Incoming: Output Cmax of C#CC1(NC(=O)C(=O)c2c(C)c(C(=O)Nc3ccc(F)c(C#N)c3)n(C)c2C)COC1
Outgoing: 1900

---

# assay.text: Volume of distribution at steady state in Beagle dog at 1 mg/kg, iv by LC-MS/MS analysis
# Type: ADME, organism-based, Canis lupus familiaris
# measurement.conditions: in vivo, read-out: Vdss
readout.type: Vd (L/kg)
// return numeric value only (unit: L/kg, not printed)

Incoming: # return recorded Vd for input C#CC1(NC(=O)C(=O)c2c(C)c(C(=O)Nc3ccc(F)c(C#N)c3)n(C)c2C)COC1
Outgoing: 1.03

---

# assay.text: Plasma protein binding in dog at 1 uM incubated for 4 to 24 hrs by equilibrium dialysis method
# Type: ADME, cell-free, Canis lupus familiaris
# measurement.conditions: time 4-24 hrs, read-out: PPB (converted)
readout.type: fraction unbound at 1 µM
A bare number is all that is needed in reply.

Incoming: Query fraction unbound at 1 µM for C#CC1(NC(=O)C(=O)c2c(C)c(C(=O)Nc3ccc(F)c(C#N)c3)n(C)c2C)COC1
Outgoing: 0.286

---

# assay.text: Plasma protein binding in rat at 2 uM incubated for 4 to 24 hrs by equilibrium dialysis method
# Assay type: ADME, cell-free
# measurement.conditions: time 4-24 hrs, read-out: PPB (converted)
readout.type: fraction unbound at 2 µM
Respond numerically, and do not add a unit to the figure.

Incoming: Return fraction unbound at 2 µM (reported value) for this compound: C#CC1(N(COP(=O)([O-])[O-])C(=O)C(=O)c2c(C)c(C(=O)Nc3ccc(F)c(C#N)c3)n(C)c2C)COC1.[Na+].[Na+]
Outgoing: 0.025
